Where do the numbers come from? From patent US8575163B2.

Molecular target: PDK1 (Homo sapiens)
Sequence (O15530 51-556 limits assumed): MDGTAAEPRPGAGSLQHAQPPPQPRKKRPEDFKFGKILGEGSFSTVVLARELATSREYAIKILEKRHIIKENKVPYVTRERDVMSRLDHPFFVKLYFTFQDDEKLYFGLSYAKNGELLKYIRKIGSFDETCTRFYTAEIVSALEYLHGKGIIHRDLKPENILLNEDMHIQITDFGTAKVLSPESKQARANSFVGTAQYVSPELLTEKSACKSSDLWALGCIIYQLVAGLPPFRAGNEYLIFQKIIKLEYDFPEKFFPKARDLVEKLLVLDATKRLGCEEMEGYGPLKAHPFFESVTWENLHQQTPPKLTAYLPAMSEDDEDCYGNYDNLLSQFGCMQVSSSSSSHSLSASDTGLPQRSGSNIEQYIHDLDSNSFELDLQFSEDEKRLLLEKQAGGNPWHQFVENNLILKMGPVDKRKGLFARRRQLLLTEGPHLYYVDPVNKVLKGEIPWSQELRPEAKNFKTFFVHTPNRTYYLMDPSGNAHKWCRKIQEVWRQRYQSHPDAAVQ
measure: IC50 (nM)
One number for each entry, in nM.

Study these solved cases before continuing.
CCOC(C)(c1ccccc1)c1cc(-c2c[nH]c3ncc(-c4cnn(C)c4)cc23)nc(N)n1 (centres unmarked) : 79
CNc1nc(-c2c[nH]c3ncc(-c4cnn(CCO)c4)cc23)cc(C(C)(O)c2ccccc2)n1 (single isomer, unassigned) [A90] : 21
CC(O)(c1ccccc1)c1cc(-c2c[nH]c3ncc(-c4cnn(CC(F)F)c4)cc23)nc(N)n1 (centres unmarked) : 50
CC(O)(c1cccc(F)c1)c1cc(-c2c[nH]c3ncc(-c4cnn(CC(=O)N5CCCCC5)c4)cc23)nc(N)n1 (centres unmarked) : 69
CC(O)(c1ccncc1)c1cc(-c2c[nH]c3ncc(-c4cnn(CC(=O)N5CCCCC5)c4)cc23)nc(N)n1 (centres unmarked) : 2.1

Return reported IC50 values for all items listed beneath this line.
1. CCCC(O)(c1ccccc1)c1cc(-c2c[nH]c3ncc(Br)cc23)nc(N)n1 (centres unmarked)
2. COCOC(C)(c1ccccc1)c1cc(-c2c[nH]c3ncc(-c4cnn(CCC(=O)O)c4)cc23)nc(N)n1 (centres unmarked)
3. Cn1cc(-c2cnc3[nH]cc(-c4cc(C(C)(O)c5cccc(F)c5)nc(N)n4)c3c2F)cn1 (centres unmarked)
4. CC(C)C(O)(c1ccccc1)c1cc(-c2c[nH]c3ncc(-c4cnn(C)c4)cc23)nc(N)n1 (centres unmarked)

Result block:
1. 280
2. 43
3. 26
4. 78

Hey, quick one: what's IC50 for each of these?
1. CC(O)(c1ccccc1)c1cc(-c2c[nH]c3ncc(-c4cnn(C(CF)CF)c4)cc23)nc(N)n1 (centres unmarked)
2. CCC(O)(c1ccncc1)c1cc(-c2c[nH]c3ncc(-c4cn[nH]c4)cc23)nc(N)n1 (single isomer, unassigned) [A44]

Result block:
1. 17
2. 17

* * *

system: PDK1 kinase activity (phospho-T308-PKB) in PC3 cells; assay: Cellular testing of PDK1 kinase inhibitors in PC3 cells (Luminex, phospho-T308-PKB); type: cell-based; settings: Homo sapiens, PC-3, 0.5 h, 30 min incubation, serum-free, read-out: IC50 PC3 cells [P-PKB T308]
pIC50: −log10 of the molar value.
Quick rule for you: pIC50 at 7 or higher means 1, lower means 0.

Query block: Is pIC50 for Cn1cc(-c2cnc3[nH]cc(-c4cc(C(C)(O)c5ccncn5)nc(N)n4)c3c2)cn1 (stereo not shown) [A113] at or above 7?
Result block: 0

Query block: Check if pIC50 >= 7 (inclusive). Item: COCOC(C)(c1cc(-c2c[nH]c3ncc(-c4cnn(C)c4)cc23)nc(N)n1)c1ccccc1F (stereo not shown) [A119]
Result block: 0

Query block: Does CC[C@@](O)(c1ccc(F)cc1)c1cc(-c2c[nH]c3ncc(-c4cnn(C)c4)cc23)nc(N)n1 (single isomer, unassigned) [A121] have a reported pIC50 of at least 7?
Result block: 1

Query block: Could you verify whether the entry CC[C@@](O)(c1cc(-c2c[nH]c3ncc(-c4cnn(C)c4)cc23)nc(N)n1)c1cccc(F)c1F (single isomer, unassigned) [A126] shows pIC50 of no less than 7?
Result block: 1

Query block: API: above_or_equal(metric=pIC50, cutoff=7) for item Cn1cc(-c2cnc3[nH]cc(-c4cc([C@](C)(O)c5cccc(Cl)c5F)nc(N)n4)c3c2)cn1 (single isomer, unassigned) [A138]
Result block: 0

Query block: Is pIC50 for CCCC(O)(c1ccncc1)c1cc(-c2c[nH]c3ncc(-c4cnn(C)c4)cc23)nc(N)n1 (stereo not shown) [A35] at or above 7?
Result block: 0

Query block: Dear colleague, could you confirm whether CC[C@](O)(c1cc(-c2c[nH]c3ncc(-c4cnn(C)c4)cc23)nc(N)n1)c1ccncc1F (single isomer, unassigned) [A131] has pIC50 at or above 7?
Result block: 1

Query block: Threshold query (pIC50 >= 7) on Cn1cc(-c2cnc3[nH]cc(-c4cc([C@](O)(c5ccccc5)C(F)(F)F)nc(N)n4)c3c2)cn1 (single isomer, unassigned) [A124]
Result block: 1

Query block: hey, is pIC50 for this one >= 7? COCO[C@@](C)(c1ccncc1)c1cc(-c2c[nH]c3ncc(Br)cc23)nc(N)n1 (single isomer, unassigned) [A140]
Result block: 0

Query block: // inclusive: pIC50 at least 7? input: CC[C@](O)(c1cc(-c2c[nH]c3ncc(-c4cnn(C)c4)cc23)nc(N)n1)c1cccc(F)c1F (single isomer, unassigned) [A125]
Result block: 1

Query block: I'd appreciate it if you could say whether CCC[C@@](O)(c1ccncc1)c1cc(-c2c[nH]c3ncc(-c4cnn(C)c4)cc23)nc(N)n1 (single isomer, unassigned) [A134] has pIC50 at least equal to 7.
Result block: 0
